// values below are reported binding signal
Study System: T1, ST2/IL-33R Fc chimera (Mus musculus, UniProt P14719 27-332)
T1 sequence: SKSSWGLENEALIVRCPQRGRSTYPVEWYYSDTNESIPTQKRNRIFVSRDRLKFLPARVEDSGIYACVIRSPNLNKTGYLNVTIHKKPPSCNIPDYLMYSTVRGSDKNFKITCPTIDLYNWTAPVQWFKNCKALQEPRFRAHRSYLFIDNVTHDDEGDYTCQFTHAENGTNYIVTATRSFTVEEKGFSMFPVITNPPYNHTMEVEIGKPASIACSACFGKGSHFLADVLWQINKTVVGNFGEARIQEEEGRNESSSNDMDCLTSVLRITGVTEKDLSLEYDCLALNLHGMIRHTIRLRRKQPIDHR
Assay Procedure: SPR; SPR (Biacore T200): 295 mM NaCl, 5.4 mM KCl, 0.8 mM MgCl2, 18 mM CaCl2 (printed CaClCl2), 0.05% Tween 20, 20 mM Tris-HCl pH 7.6; temperature not stated. A/C: po
Observable: binding signal

* B RaptScore round7 3 (ssRNA) RNA: GGGAGAACUUCGACUUGUAACAAGCUGUUUUGGAACAGCGCAUAACGAUUCGUGCAGAGAUCCUC | -0.82 % of B Round7 3
* B RaptScore round6 2 (ssRNA) RNA: GGGAGAACUUCGACUUGUAACAAGCUGUUUUGGAACAGCGCAUAACGAACCGUGCAGAGAUCCUC | -4.91 % of B Round7 3
* B RaptScore round7 1 (ssRNA) RNA: GGGAGAACUUCGACUUGUAACAAGCUGUUUUGGAACAGCGCAUAACGAUCCGUGCAGAGAUCCUC | -4.12 % of B Round7 3
* B RaptScore round6 3 (ssRNA) RNA: GGGAGAACUUCGACUUGUAACAAGCUGUUUUGGAACAGCGCAUAACGAAACGUGCAGAGAUCCUC | -3.28 % of B Round7 3

Origin of measurements: paper PMC12802916
